Each record here notes measured IC50.
# Tested on: normal human neonatal foreskin epidermal keratinocytes (NHEK-F)
# Method summary: Cell proliferation inhibition test
# Assay type: cell-based
# Protocol conditions: Keratinocyte, 72 h, NHEK-F cells, three days incubation, ATPlite or CellTiterGlo, read-out: IC50 (concentration of the compound at which the cell count is reduced by 50%)

Please review the entries below; each comes with its answer.
>  <Molecular string>
O=C(O)c1cc(Cl)ccc1Nc1ccc2c(ccn2Cc2cccc(OCC(F)(F)F)c2)c1

>  <IC50>
≤ 10 nM

$$$$
>  <Molecular string>
O=C(O)c1cc(-c2ccccc2)ccc1Nc1ccc2c(ccn2Cc2ccccc2)c1

>  <IC50>
10 to 100 nM

$$$$

Query string: Any idea what its IC50 is? The molecule is O=C(O)c1cc(Cl)ccc1Nc1ccc2c(ccn2-c2cnccn2)c1
Result string: 100 to 1000 nM

Query string: Would you mind doing O=C(O)c1cc(C2CC2)cnc1Nc1cccc2c1ccc(=O)n2-c1ccccc1 as well?
Result string: 100 to 1000 nM

Query string: Then CCCCn1ccc2cc(Nc3ccc(Cl)cc3C(=O)O)ccc21 ?
Result string: 10 to 100 nM

Query string: Can you check COc1ccccc1-c1cn(C)c2ccc(Nc3ncc(C4CC4)cc3C(=O)O)cc12 next?
Result string: 10 to 100 nM

Query string: Next record, please: O=C(O)c1cc(C2CC2)ccc1Nc1ccc2c(c1)n(CC1CC1)c(=O)n2-c1ccccc1
Result string: 10 to 100 nM

Query string: Ok, now O=C(O)c1cc(C2CC2)ccc1Nc1ccc2c(ccn2Cc2ccc(N3CCOCC3)cc2)c1
Result string: 10 to 100 nM

---

# Test system: normal human neonatal foreskin epidermal keratinocytes (NHEK-F)
# Method summary: Cell proliferation inhibition test
# Type: cell-based
# Protocol conditions: Keratinocyte, 72 h, NHEK-F cells, three days incubation, ATPlite or CellTiterGlo, read-out: IC50 (concentration of the compound at which the cell count is reduced by 50%)
Outcome measure: IC50

Use these answered entries as a reference point.
>  <Compound>
CCc1cc(Nc2ncc(C3CC3)cc2C(=O)O)cc2ccn(CC)c12 [Example 413]

>  <Value measured>
10 to 100 nM

$$$$
>  <Compound>
O=C(O)c1cc(Cl)ccc1Nc1ccc2c(ccn2-c2cccnc2)c1 [Example 49]

>  <Value measured>
10 to 100 nM

$$$$
>  <Compound>
CCn1cc(-c2ccccc2)c2cc(Nc3ncc(C4CC4)cc3C(=O)O)ccc21 [Example 170]

>  <Value measured>
10 to 100 nM

$$$$
>  <Compound>
O=C(O)c1cc(C2CC2)cnc1Nc1ccc2c(ccn2CC2CCCC2)c1 [Example 138]

>  <Value measured>
≤ 10 nM

$$$$

Query string: If you can, please state the reported IC50 value of O=C(O)c1cc(C2CC2)cnc1Nc1cccc2c(N3CCOCC3)nccc12 [Example 475] .
Result string: 100 to 1000 nM

Query string: Here is the next compound: Cn1cc(-c2cccc(F)c2)c2cc(Nc3ncc(C4CC4)cc3C(=O)O)ccc21 [Example 559]
Result string: 10 to 100 nM

---

# Test system: normal human neonatal foreskin epidermal keratinocytes (NHEK-F)
# Method summary: Cell proliferation inhibition test
# Format: cell-based
# Protocol conditions: Keratinocyte, 72 h, NHEK-F cells, three days incubation, ATPlite or CellTiterGlo, read-out: IC50 (concentration of the compound at which the cell count is reduced by 50%)
pIC50: −log10 of the molar value.
Outcome measure: pIC50

Solved entries:
>  <Compound>
O=C(O)c1cc(C2CC2)cnc1Nc1ccc2c(ccn2-c2ccccc2)c1 [Example 39]

>  <pIC50>
≥ 8.00

$$$$
>  <Compound>
O=C(O)c1cc(C2CC2)cnc1Nc1ccc2c(ccn2Cc2cccc(O)c2)c1 [Example 505]

>  <pIC50>
≥ 8.00

$$$$
>  <Compound>
O=C(O)c1cc(Cl)cnc1Nc1ccc2c(ccn2Cc2cccc(F)c2)c1 [Example 645]

>  <pIC50>
7.00 to 8.00

$$$$
>  <Compound>
O=C(O)c1cc(C2CC2)cnc1Nc1ccc2c(ccn2Cc2ccccc2C(F)(F)F)c1 [Example 449]

>  <pIC50>
7.00 to 8.00

$$$$
>  <Compound>
O=C(O)c1cc(C2CC2)cnc1Nc1ccc2c(ccn2Cc2ccc(F)cc2F)c1 [Example 633]

>  <pIC50>
≥ 8.00

$$$$

Let us examine a further case.
Query string: Consider the compound shown here: O=C(O)c1cc(C2CC2)cnc1Nc1ccc2c(ccn2CC2CCC2)c1 [Example 133] What is its recorded pIC50?
Result string: ≥ 8.00
